Molecular target: T1, mouse GPRC5D (mouse, UniProt Q9JIL6 1-344)
T1 construct: whole, on cells; HEK293T-mGPRC5D cells; also called mGPRC5D; murine GPRC5D
T1 sequence (looked up): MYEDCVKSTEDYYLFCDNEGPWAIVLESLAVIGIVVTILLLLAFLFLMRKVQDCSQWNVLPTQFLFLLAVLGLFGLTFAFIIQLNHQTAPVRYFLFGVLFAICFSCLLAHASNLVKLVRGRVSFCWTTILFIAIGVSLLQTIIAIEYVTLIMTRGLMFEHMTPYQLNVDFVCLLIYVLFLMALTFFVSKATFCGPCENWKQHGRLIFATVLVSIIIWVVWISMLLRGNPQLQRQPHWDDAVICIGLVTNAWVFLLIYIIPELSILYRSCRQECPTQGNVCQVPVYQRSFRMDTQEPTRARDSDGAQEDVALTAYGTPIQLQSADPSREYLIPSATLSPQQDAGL
Assay: FACS, HEK293T-mGPRC5D cells; note: test concentration or dose not given here
Reported % Positive values for the following binders.
Give the number; % is assumed, so skip it.

// query For 12G12C2 (antibody, V domains shown, Mouse monoclonal antibody from hybridoma subclone) VH: QIQLVQSGPELKMPGETVKISCKASGYTFTTYGLSWVKQAPGKGLKWMGWINTFSGVPIYADDFKGRFAFSLETSASTAYLQINNLKNEDTATYFCARWGIRQRGDYWGQGATLTVSS VL: QIVLTQSPAIMSASPGEKVTMTCSASSSVSYLHWYQQKSGTSPKRWIYDTSKLASGVPVRFSGSGSETSYSLTISSMEAEDAATYYCQQWTSNPPTFGGGTKLEIK , what is its reported % Positive?
// result 99

// query For ATG596 (antibody, V domains shown, Human IgG1; also called benchmark antibody ATG596; positive human IgG1 control antibody) VH: QVQLVQSGAEVKKPGASVKVSCKASGYSFTGYTMNWVRQAPGQGLEWMGLINPYNSDTNYAQKLQGRVTMTTDTSTSTAYMELRSLRSDDTAVYYCARVALRVALDYWGQGTLVTVSS VL: DIQMTQSPSSLSASVGDRVTITCKASQNVATHVGWYQQKPGKAPKRLIYSASYRYSGVPSRFSGSGSGTEFTLTISNLQPEDFATYYCQQYNRYPYTFGQGTKLEIK , what is its reported % Positive?
// result 98.2

// query For 20C4E1 (antibody, V domains shown, Mouse monoclonal antibody from hybridoma subclone) VH: EVRLVESGGALVRPGGSLKLSCAASGFTFSDYGMHWVRQAPEKGLEWIAFISSVSFTIYYADTVKGRFTISRDNAKNTLFLQMTSLRSEDTALYYCTRLGPHWYFDVWGTGTTVTVSS VL: DVVLTQTPLSLPVSLGDQASISCRSSQSLVYSNGNTYLHWFLQKPGQSPQLLIYKVSNRFSGVPDRFSGSGSGTDFTLKISRVEAEDLGVYFCSQSTPVPTFGGGTKLEIK , what is its reported % Positive?
// result 82.7
